target: Glutathione S-transferase omega-1 (Homo sapiens); experiment: inhibitors of recombinant GSTO1, primary screen, counter-screen for RBBP9 inhibitor project, biochemical, fluorescence polarization (AID 1974); settings: recombinant GSTO1, activity-based probe fluorescence polarization; at 5.96 µM
Hit rate of the full screen: of about 300,000 compounds, about 3,200 (1.1%) were called active.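 How the source made its calls: active means inhibition above the campaign mean inhibition plus 3 SD (cut at about 35% in these data); inactive means the rest.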 The sample holds actives, similar compounds and a random draw of the others, so the mix is not that of the screen.
Output constraint: value belongs to Y (active), N (inactive)

Cc1ccc(S(=O)(=O)N2CCCCC2)cc1C(=O)N(C)CC(=O)Nc1cccc(F)c1 :: N
O=C(c1cc(C(=O)N2CCN(c3ccc(F)cc3)CC2)cc([N+](=O)[O-])c1)N1CCN(c2ccc(F)cc2)CC1 :: N
Cc1ccsc1/C=N/Nc1ccc(Cl)nn1 :: N
O=C(COC(=O)CNS(=O)(=O)c1ccc(F)c(F)c1F)NC1CCCC1 :: N
OCc1ccc(-c2ccccc2)c(-c2ccccc2)c1 :: N

Then this compound:
Lab log entry: "Oc1cccc(/C=N/Nc2ccc(Cl)nn2)c1O" — outcome as called in the assay?
Y
